These measurements were taken from the supplement of paper PMC3334620.

TARGET OR SYSTEM: Pdr3 (UniProt P33200)
Sequence: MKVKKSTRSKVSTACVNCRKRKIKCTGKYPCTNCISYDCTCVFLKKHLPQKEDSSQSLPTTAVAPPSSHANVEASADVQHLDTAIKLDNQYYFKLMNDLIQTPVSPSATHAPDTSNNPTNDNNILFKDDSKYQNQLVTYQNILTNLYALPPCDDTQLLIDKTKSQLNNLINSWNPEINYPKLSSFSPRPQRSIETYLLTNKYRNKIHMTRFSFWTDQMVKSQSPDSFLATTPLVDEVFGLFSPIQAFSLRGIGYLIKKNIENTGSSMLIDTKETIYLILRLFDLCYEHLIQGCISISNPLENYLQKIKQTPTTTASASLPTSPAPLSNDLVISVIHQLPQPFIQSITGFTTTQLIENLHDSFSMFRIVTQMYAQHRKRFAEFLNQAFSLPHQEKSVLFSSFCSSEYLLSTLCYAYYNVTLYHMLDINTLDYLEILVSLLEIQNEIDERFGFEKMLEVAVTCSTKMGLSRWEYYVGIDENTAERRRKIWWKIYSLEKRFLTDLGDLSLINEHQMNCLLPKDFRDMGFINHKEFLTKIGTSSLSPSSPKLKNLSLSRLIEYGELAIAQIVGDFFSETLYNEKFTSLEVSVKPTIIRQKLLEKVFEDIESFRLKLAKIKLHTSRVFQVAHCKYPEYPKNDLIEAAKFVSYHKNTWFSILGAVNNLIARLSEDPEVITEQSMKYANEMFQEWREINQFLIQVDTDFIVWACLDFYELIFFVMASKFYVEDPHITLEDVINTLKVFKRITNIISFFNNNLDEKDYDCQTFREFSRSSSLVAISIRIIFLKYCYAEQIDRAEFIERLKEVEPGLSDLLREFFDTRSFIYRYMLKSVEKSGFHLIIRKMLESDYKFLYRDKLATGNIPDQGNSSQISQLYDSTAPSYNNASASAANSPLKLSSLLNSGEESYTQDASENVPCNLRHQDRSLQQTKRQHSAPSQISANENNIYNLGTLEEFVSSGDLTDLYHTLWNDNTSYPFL
ASSAY COMMENT: PBM E-score (8-mer binding enrichment) (E-score (-0.5 to 0.5)); higher = stronger / more preferred TF binding
EXPERIMENTAL CONDITIONS: protein concentration: 200 nM; construct: GST-full length
The full ranking holds about 33,000 sequences; the median of “E-score (-0.5 to 0.5)” is about -0.035, and the highest 2% start at about 0.35. What follows is part of a selection rich in the highest values, with near analogues and random picks from the rest.
READOUT KIND: PBM E-score
// no unit, no text: just the number

INSERT INTO assay_data (input_sequence, readout_kind, data_value) VALUES
  ('ACTTTCGA', 'PBM E-score', -0.0188);

Sample AGTCCGAG — what was its PBM E-score?
0.281

Sample CTGGTTCC — what was its PBM E-score?
0.264

Sample ACATCGCG — what was its PBM E-score?
0.0219

Sample GTGCCCAA — what was its PBM E-score?
-0.0202

Sample ACCGTTCT — what was its PBM E-score?
-0.0192
